TEST SUMMARY: in vitro
TEST PARAMETERS: rat, gh3-tre-luc cells, AC50 (uM) modified / 1000
Counter-ions that a name gives are not always drawn.
Each entry below lists one item and its recorded CC50 at 24 h value.

Previously resolved entries follow.
CCCCC(CC)CO (stereo not drawn) :: > 90 µM
Cc1cccc2ccccc12 :: > 90 µM
CN(C)[C@@H]1C(O)=C(C(N)=O)C(=O)[C@@]2(O)C(O)=C3C(=O)c4c(O)cccc4[C@@](C)(O)[C@H]3[C@H](O)[C@@H]12 [Oxytetracycline hydrochloride] :: > 90 µM
CCOC(=O)CC#N [Ethyl cyanoacetate] :: > 90 µM
CC(C)(C)c1cccc(O)c1 :: > 90 µM
CC1=CC[C@H](CC=O)C1(C)C :: > 90 µM
CN1[C@@H](CC(=O)c2ccccc2)CCC[C@H]1C[C@H](O)c1ccccc1 :: > 50 µM
CCCC(=O)OCCc1ccccc1 [2-Phenylethyl butanoate] :: > 90 µM
CCc1ccc(C)cc1 :: > 90 µM
CCCCCCCOC(C)=O [Heptyl acetate] :: > 90 µM

Now, please, on to the next compound.
Prompt line: Which CC50 at 24 h reading was recorded for the compound COc1cc(NS(C)(=O)=O)ccc1Nc1c2ccccc2nc2ccccc12 [Amsacrine hydrochloride] ?
Response line: 0.432 µM
